Test system: A549
ASSAY_OVERVIEW: Cytotoxicity against human A549 cells
Format: functional, cell-based
ASSAY_READOUT: IC50 (µg/mL)
Field: numeric (µg/mL). Do not append units.

[Q] Name the recorded IC50 for `C=C(CC[C@@H](C)[C@H]1CC[C@@H](C2=C[C@@H]3O[C@@]34C[C@@H](O)CC[C@]4(C)C2=O)[C@]1(C)CC=O)C(C)C` .
[A] 1

[Q] Request: `CC(=O)O[C@H]1C[C@H]2[C@]3(C)CC[C@H]4C(C)(C)CCC[C@]4(C)[C@H]3C[C@@H](O)[C@]2(C)[C@H]2OC(=O)C=C12`
[A] 5

[Q] Request: `CC(=O)O[C@@H]1C[C@H]2[C@]3(C)CC[C@H]4C(C)(C)CCC[C@]4(C)[C@H]3C[C@@H](O)[C@]2(C)c2occc21`
[A] 1

[Q] Request: `CC(C)[C@@H](C)/C=C/[C@@H](C)[C@H]1CC[C@@H](C2=C[C@@H]3O[C@@]34C[C@@H](O)CC[C@]4(C)C2=O)[C@]1(C)CC=O`
[A] 1

Every entry's value here was drawn from ChEMBL document CHEMBL1158904.
